The reported numbers originate from patent US10407467B2.

- Test system: Pseudomonas aeruginosa
- Assay summary: MIC, compound in combination with a second agent (broth microdilution)
- Format: cell-based
- Cond: 1:1 (wt:wt) combination with Rifampicin; MIC = total drug concentration; strain ATCC CRM-9027
Where a name gives a salt, the structure may show the parent alone. Bridge positions count the residues as written; N and C are the ends. Square brackets hold non-standard residues; d marks the D form. Peptide text beside a SMILES is read from it. * marks the point of attachment. ξ: configuration not given here. ξβ3hGly(cHex) = NC(CC(=O)*)C1CCCCC1; Thr(3ξ) = CC(O)[C@H](N)C(=O)O; Dab = NCC[C@H](N)C(=O)O; Dap = NC[C@H](N)C(=O)O
Overview of recorded MIC P. aeruginosa ATCC CRM-9027 for various molecules
Respond numerically; units are micrograms/mL and should not be typed.

INSERT INTO assay_data (molecule, recorded_value) VALUES
  ('CC(C)C[C@@H]1NC(=O)[C@@H](CC(C)C)NC(=O)[C@H](CCN)NC(=O)[C@@H](NC(=O)[C@H](CCN)NC(=O)[C@@H](NC(=O)C(O)C2CCCCC2)C(C)O)CCNC(=O)[C@H](C(C)O)NC(=O)[C@H](CCN)NC(=O)[C@H](CCN)NC1=O (single isomer, unassigned; isomer 1)', 0.5);

Complete the entry with MIC P. aeruginosa ATCC CRM-9027 for CC(C)C[C@@H]1NC(=O)[C@@H](Cc2ccccc2)NC(=O)[C@H](CCN)NC(=O)[C@@H](NC(=O)[C@H](CN)NC(=O)[C@@H](NC(=O)CC(N)C2CCCCC2)C(C)O)CCNC(=O)[C@H](C(C)O)NC(=O)[C@H](CCN)NC(=O)[C@H](CCN)NC1=O (stereo partly drawn) [Example 47, TFA salt] ({ξβ3hGly(cHex)}-[Thr(3ξ)][Dap][Dab][Dab][dF]L[Dab][Dab][Thr(3ξ)]; lactam 3-C) 0.125
